Just for reference, the DeepSol protein solubility set is where these values come from.

# run.description: soluble on expression in E. coli; label from the status in PepcDB or PDB records
quantity.measured: soluble on expression in E. coli

>  <sequence.code>
MLQVCCYTSEGYKYAVGIDLVRFFDTVNHSFLLRILSRTINDGRVISLIHKYLTSGVMIGKHYEPSIEGTPQGAPLSPLLSNILLNELDKELERRGHCFVRYADDSMILCKSKRSAERVCSSITDFSFYFTKGKCRLCVHKTTKEKFKRKVKSLTRRSNSMGYAQRKEILWQTFRGWIGYFKYADMRSLLIPLDQWYRRHLRMCIWKCWKRVKTRFSNLQKCGIPKGKALEHHHHHH

>  <quantity.measured>
soluble on expression in E. coli

>  <observed.value>
soluble

$$$$
>  <sequence.code>
MSEKPQQEEQEKPQSRRNSFAVIEFTPEVLDRCLKQVEFYFSEFNFPYDRFLRTTAEKNDGWVPISTIATFNRMKKYRPVDKVIEALRSSEILEVSADGENVKRRVPLDLTAARNARIEQNQRTLAVMNFPHEDVEASQIPELQENLEAFFKKLGEINQVRLRRDHRNKKFNGTVLVEFKTIPECEAFLKSYSNDDESNEILSYEGKKLSVLTKKQFDLQREASKSKNFSGRSRSFNGHKKKNLPKFPKNKKKNGKEESKEDSSAIADDDEEHKE

>  <quantity.measured>
soluble on expression in E. coli

>  <observed.value>
soluble

$$$$

* * *

# run.description: soluble on expression in E. coli; label from the status in PepcDB or PDB records

>  <sequence.code>
MGSDKIHHHHHHMSTDTDDDSGSHGCKAPDSDGEVAENIAIVAFERKMDTAEDIVDGIGDRYESIDILEYHGDVFEEYWGEYDCFIGLMASGIAMRKTAHLLDDKWDDPAICVVDEELTWAIPITGGHHGANQVADDLASMGAVPAMTTASEAADKQGVEKQAKALDAHVVNGDSTVATNLAVLDDELGPIERLDGPKAVLVDDDVTVLKRNKDDGIVLGCGSVAGADVEQFHAAWEQALDEADLDRDDVEFVATGTRKADEEGMLAAAEEWGLGVIAFEKETLEGFEGPTPSRSKELIGWPGIAEASAIAAGSEHDLLAEKTRYDEAVTVAIGR

>  <soluble on expression in E. coli>
not soluble

$$$$
>  <sequence.code>
MSLKNTTIADVAAAADVSVTTVSRYLNGNYQKMSAATKQRIKETIATLHYAPKASARKMRQDHSQLIGVVVGDIANVFSSLLFKGIYDVLQPAGYDVLLMNANNTATTEHGELTRLAAQQVDGIILQPSAATAAAYAGLTIPTIIVDRQLPNSPLAQVLSSNFDASYQLGQHLREQGYRRLITVGRAVAPHTAQTDRLAGLTATGLSVIHLDMTSHGAPWLTQQLRQYQQAPDKPVIISLMGPLLFEILASLKAAHLHFPADVGLVSFDDWQWSQYVNDGIYLLQQQPALMGQLAATTLLHQLSTTPTTMTQYVPVAPVVKPSLEGHHHHHH

>  <soluble on expression in E. coli>
not soluble

$$$$

* * *

# run.description: soluble on expression in E. coli; label from the status in PepcDB or PDB records
quantity.measured: soluble on expression in E. coli

>  <sequence.code>
MWNNVTTIKIQFHRIEQLGSVQLDDKNRICKFTSFDGQLELQGRHGRCSVDIESPEFVRFVQFLVNKTEKSNEPIDQRRVFGKFRALEHGVLDVTTYRNRFHGVVARNMILLDNLSIDLSIRMIFALSGKMETNFLSEVEKHGIVRLDNQNRIIEYVANDGKMKLKGQHDGRKDHGTQATQDPV

>  <quantity.measured>
soluble on expression in E. coli

>  <observed.value>
not soluble

$$$$
>  <sequence.code>
MGSDKIHHHHHHMPYAVTLPEFTGPLDLLLRLIERAELDITTIALASVADQYLAHVRTLEEVEPRELAEFVSMAARLILIKSRALLPRSPTTPAEAGDEDAGQLVAQLELYRRFKQAAEVLRRWQDQGRSTFVRLAPPPLLPAPAPISYRITDLLHALERRRQLQLPLAQPEPIVLAPRLTVAEVAERIRARLERTAWFDFTDLLSNDPTTEEVIVSFWAMLELLKRRAIVVEQTMLFGPILIGRGTAPIVTEPADEDEL

>  <quantity.measured>
soluble on expression in E. coli

>  <observed.value>
not soluble

$$$$
>  <sequence.code>
MGSDKIHHHHHHCAASWVHPLTGAHLLLFGTEQGIYSFDTNCMPDGNLSKIHHRRCSWMFVYADRLTAIQGNTPYVYRHDLVALTQKNLTLKMSKNLNKIPEKYVPKRLAITVRMPETRGALQCTVKRGQGAQANSLFLCCAVRKTVHLFQWYNPMNQFVLVRSEPIREDIRFPIRPFALINSRTSDFPELCIGVGQMSGSNEYQFNMINFCSSTNNSELSGDLNSSYGSLADDEMLEVGSMHQIDRDTLCFSFRNKVVLTDLQGFERPKPSIFTFNFHIEYLHVVDGTILAFHANGVQGRDLKSNLNTQDLCDVSRLYRVIGDDRVIILRSQP

>  <quantity.measured>
soluble on expression in E. coli

>  <observed.value>
not soluble

$$$$
